Test system: HOP-62 NSCLC
Procedure Text: NCI-60 one-dose screen, 48 h (100 = growth as untreated, 0 = no growth, -100 = all killed)
Experimental Setup: 10 µM unless noted
This is part of a sample that, as a whole, favours compounds with a hit. Of some 83,000 tested, about 20% had one in any assay. The source made the active and inactive calls. The calls were made as follows: active = growth percent below 10; inactive = the rest.
Readout Kind: growth

The cases that follow already have their growth on record.
q: Recorded growth of O=C(Cc1ccc(-c2ccc(OCCN3CCOCC3)cc2)cn1)NCc1ccccc1 , please.
a: -3.09% (active)

q: Recorded growth of COc1ccc(C2OC(c3cc(-c4cc5ccccc5o4)nn3-c3ccccc3)=NN2C(C)=O)cc1 (stereo not given) , please.
a: 91.4% (inactive)

q: Recorded growth of Cc1nc2cc(-c3nn(C(C)C)c4ncnc(N)c34)ccc2o1 , please.
a: -36.3% (active)

q: Recorded growth of COc1cc2c(cc1O)c(=O)n(CCN(C)C)c1c3cc4c(cc3ncc21)OCO4 , please.
a: -4.35% (active)

More entries:
q: Recorded growth of C=C1C[C@H](O)[C@H](Br)C(C)(C)[C@@]12CCC(C)=C(Cl)C2 , please.
a: 35.6% (inactive)
